Numbers sourced from paper PMC9728921.

# Test system: HBV
# EXPERIMENTAL DETAILS: Secreted HBsAg by immunoassay in HBV-infected PHH
# Assay type: cell-based
# ASSAY SETUP: Hepatitis B virus, read-out: HBsAg EC50, PHH donor BCD; HBV GTD; treated every three to four days for 14 days
READOUT NAME: EC50 (nM)
Answers are plain numbers, in nM.

q: Complete the entry with EC50 for CCOC(=O)c1ccnc(CNCC(=O)N(CC)CCN(C)C)c1
a: 15

---

# EXPERIMENTAL DETAILS: Cytotoxicity CC50, NRVM
# Type: cell-based
# ASSAY SETUP: rat, NRVM (neonatal rat ventricular cardiomyocytes)
# Description: a Values represent the geometric mean and multiplicative standard deviation of 3 – 5 primary human hepatocyte (PHH) donors or 5 – 10 independent experiments. […]
Consider the following compounds; for each one, report its CC50.

Reference set, count: 2
COc1ccc(C[C@H](N)C(=O)N[C@H]2[C@@H](O)[C@H](n3cnc4c(N(C)C)ncnc43)O[C@@H]2CO)cc1 [Puromycin, reference compound] = 0.57 µM
CCOC(=O)c1ccnc(CNCC(=O)N(CC)CCN(C)C)c1 = > 44 µM

--- query ---
q: Complete the entry with CC50 for CCN(CCN(C)C)C(=O)CNCc1cc(C(=O)O)ccn1
a: > 44 µM

---

# Tested on: HBV
# EXPERIMENTAL DETAILS: Intracellular HBV RNA (vRNA) by qRT-PCR in HBV-infected PHH
# Type: cell-based
# ASSAY SETUP: Hepatitis B virus, read-out: vRNA EC50, PHH infected with HBV GTD; treated every three to four days for 13 days (Table 3)
# Protocol: Approximately 24 hours after plating, PHH were infected with HepAD38-derived GTD virus at 500 viral genome equivalents per cell in maintenance medium supplemented with 4% PEG 8000 (Promega, Madison, WI; V3011). […] GAPDH or RPLP0 mRNA expression was used to normalize target gene expression. Levels of HBV RNA for all donors were calculated as fold change relative to no drug treated sample using the 2-ΔΔCt method. […]
READOUT NAME: pEC50
Give bare numbers, as −log10 of the molar value.

q: Complete the entry with pEC50 for CCOC(=O)c1ccnc(CNCC(=O)N(CC)CCN(C)C)c1 [GS-5801]
a: 6.37

---

# Tested on: HBV
# EXPERIMENTAL DETAILS: Intracellular HBV RNA (vRNA) by qRT-PCR in HBV-infected PHH
# Type: cell-based
# ASSAY SETUP: Hepatitis B virus, read-out: vRNA EC50, PHH donor Hu349; HBV GTD; treated every three to four days for 14 days
READOUT NAME: pEC50
One number for each entry, as −log10 of the molar value.

q: State measured pEC50 of the molecule CCOC(=O)c1ccnc(CNCC(=O)N(CC)CCN(C)C)c1 [GS-5801] with HBV.
a: 6.37

---

# EXPERIMENTAL DETAILS: Cytotoxicity CC50, MRC-5
# Assay type: cell-based
# ASSAY SETUP: human, MRC-5 cells (embryonal lung fibroblasts)
# Excerpt: a Values represent the geometric mean and multiplicative standard deviation of 3 – 5 primary human hepatocyte (PHH) donors or 5 – 10 independent experiments. […]
READOUT NAME: CC50

# per-item lookup of CC50; items listed below
1. CCOC(=O)c1ccnc(CNCC(=O)N(CC)CCN(C)C)c1
2. CCN(CCN(C)C)C(=O)CNCc1cc(C(=O)O)ccn1
3. COc1ccc(C[C@H](N)C(=O)N[C@H]2[C@@H](O)[C@H](n3cnc4c(N(C)C)ncnc43)O[C@@H]2CO)cc1 [Puromycin, reference compound]

a:
["> 44 µM", "> 44 µM", "0.35 µM"]

---

# Test system: HBV
# EXPERIMENTAL DETAILS: Secreted HBsAg by immunoassay in HBV-infected PHH
# Format: cell-based
# ASSAY SETUP: Hepatitis B virus, 336 h, read-out: EC50 range across genotypes, secreted HBsAg, range across genotypes; 14 days of dosing
READOUT NAME: EC50

q: State measured EC50 of the molecule CCOC(=O)c1ccnc(CNCC(=O)N(CC)CCN(C)C)c1 [GS-5801] with HBV.
a: 36 to 3100 nM

---

# Tested on: HBV
# EXPERIMENTAL DETAILS: Extracellular HBV DNA (vDNA) by qPCR in HBV-infected PHH
# Assay type: cell-based
# ASSAY SETUP: Hepatitis B virus, read-out: vDNA EC50, PHH donor BCD; HBV GTD; treated every three to four days for 14 days
READOUT NAME: EC50 (nM)
Give bare numbers, in nM.

q: Complete the entry with EC50 for CCOC(=O)c1ccnc(CNCC(=O)N(CC)CCN(C)C)c1 [GS-5801]
a: 7.1

---

Consider the following molecules; for each one, report its IC50.
# SYSTEM TESTED: KDM5A (Homo sapiens, UniProt P29375)
# Sequence (P29375 whole entry): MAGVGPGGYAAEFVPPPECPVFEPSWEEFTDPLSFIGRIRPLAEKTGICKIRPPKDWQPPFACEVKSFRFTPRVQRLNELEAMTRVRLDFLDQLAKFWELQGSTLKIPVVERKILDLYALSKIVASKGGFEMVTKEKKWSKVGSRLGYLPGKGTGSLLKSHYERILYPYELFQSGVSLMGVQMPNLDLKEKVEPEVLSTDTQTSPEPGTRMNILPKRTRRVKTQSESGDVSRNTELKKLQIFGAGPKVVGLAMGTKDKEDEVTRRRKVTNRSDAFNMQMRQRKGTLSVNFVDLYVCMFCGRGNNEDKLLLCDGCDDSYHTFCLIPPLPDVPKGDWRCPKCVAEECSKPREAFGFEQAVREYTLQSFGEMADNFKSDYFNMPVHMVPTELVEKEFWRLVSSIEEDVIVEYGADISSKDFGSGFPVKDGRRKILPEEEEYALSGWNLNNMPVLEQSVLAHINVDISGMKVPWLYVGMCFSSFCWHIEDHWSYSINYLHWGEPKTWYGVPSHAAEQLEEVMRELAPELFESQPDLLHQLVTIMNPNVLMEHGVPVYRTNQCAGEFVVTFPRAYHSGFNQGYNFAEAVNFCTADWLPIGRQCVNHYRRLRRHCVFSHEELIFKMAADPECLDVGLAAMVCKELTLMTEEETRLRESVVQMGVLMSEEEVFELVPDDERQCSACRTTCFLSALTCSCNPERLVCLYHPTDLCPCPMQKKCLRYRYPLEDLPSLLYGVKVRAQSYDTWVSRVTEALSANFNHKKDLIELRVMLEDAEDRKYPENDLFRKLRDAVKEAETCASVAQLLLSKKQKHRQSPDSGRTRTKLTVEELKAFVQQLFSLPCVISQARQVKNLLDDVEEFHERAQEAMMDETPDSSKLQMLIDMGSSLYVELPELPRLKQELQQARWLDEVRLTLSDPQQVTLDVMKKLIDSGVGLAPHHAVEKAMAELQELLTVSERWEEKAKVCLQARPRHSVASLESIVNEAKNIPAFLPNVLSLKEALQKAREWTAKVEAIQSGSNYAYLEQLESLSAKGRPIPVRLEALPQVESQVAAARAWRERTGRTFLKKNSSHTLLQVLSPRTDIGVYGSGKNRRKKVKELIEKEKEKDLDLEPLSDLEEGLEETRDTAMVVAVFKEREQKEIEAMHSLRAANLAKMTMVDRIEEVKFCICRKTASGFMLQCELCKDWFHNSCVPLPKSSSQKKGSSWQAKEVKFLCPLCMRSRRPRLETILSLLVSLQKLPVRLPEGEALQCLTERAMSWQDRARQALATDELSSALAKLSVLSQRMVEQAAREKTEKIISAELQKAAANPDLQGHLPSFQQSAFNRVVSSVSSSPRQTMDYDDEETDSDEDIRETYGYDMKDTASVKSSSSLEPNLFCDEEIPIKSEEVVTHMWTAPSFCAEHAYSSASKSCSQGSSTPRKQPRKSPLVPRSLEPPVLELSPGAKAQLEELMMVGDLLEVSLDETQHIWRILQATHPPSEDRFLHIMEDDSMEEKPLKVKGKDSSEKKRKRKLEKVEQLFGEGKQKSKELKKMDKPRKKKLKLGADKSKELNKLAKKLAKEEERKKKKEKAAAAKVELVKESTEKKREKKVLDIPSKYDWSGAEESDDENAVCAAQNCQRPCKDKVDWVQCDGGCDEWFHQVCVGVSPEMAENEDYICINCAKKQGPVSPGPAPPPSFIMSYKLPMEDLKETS
One number for each entry, in nM.

O=C(O)c1ccnc(C(=O)O)c1 [PDCA, 2,4-Pyridinedicarboxylic acid, reference compound] = 410

--- query ---
q: Complete the entry with IC50 for CCN(CCN(C)C)C(=O)CNCc1cc(C(=O)O)ccn1 [GS-080]
a: 0.36

---

# Tested on: HBV
# EXPERIMENTAL DETAILS: Secreted HBsAg by immunoassay in HBV-infected PHH
# Format: cell-based
# ASSAY SETUP: Hepatitis B virus, read-out: HBsAg EC50, PHH donor Hu8181; HBV GTD; treated every three to four days for 14 days
# Protocol: Approximately 24 hours after plating, PHH were infected with HepAD38-derived GTD virus at 500 viral genome equivalents per cell in maintenance medium supplemented with 4% PEG 8000 (Promega, Madison, WI; V3011). […] Hepatitis B e antigen (HBeAg) and Hepatitis B surface antigen (HBsAg) were detected in culture media at the indicated time by ELISA or electrochemiluminescence assay (MSD). […] Concentrations were calculated by interpolation from standard curves with purified HBeAg and HBsAg. […]
READOUT NAME: pEC50
Numbers only, as −log10 of the molar value.

q: Complete the entry with pEC50 for CCOC(=O)c1ccnc(CNCC(=O)N(CC)CCN(C)C)c1
a: 7.21

---

# EXPERIMENTAL DETAILS: Cytotoxicity CC50, PBMC
# Assay type: cell-based
# ASSAY SETUP: human, PBMC (peripheral blood mononuclear cells)
Consider the following molecules; for each one, report its CC50.

CCN(CCN(C)C)C(=O)CNCc1cc(C(=O)O)ccn1 [GS-080] = > 44 µM
CCOC(=O)c1ccnc(CNCC(=O)N(CC)CCN(C)C)c1 [GS-5801] = > 44 µM

q: Complete the entry with CC50 for COc1ccc(C[C@H](N)C(=O)N[C@H]2[C@@H](O)[C@H](n3cnc4c(N(C)C)ncnc43)O[C@@H]2CO)cc1 [Puromycin, reference compound]
a: 0.61 µM
